Test system: PDE peak B (novel cGMP-specific PDE)
protocol description: cGMP hydrolysis by PDE peak B isolated from SW-480 cells
Assay type: biochemical, human
conditions: 0.25 μM 3H-cGMP
pIC50: −log10 of the molar value.
Entries annotated with measured pIC50
measurement label: pIC50

compound: COc1cc(/C=C2/C(C)=C(CC(=O)NCc3ccccc3)c3cc(F)ccc32)cc(OC)c1OC
limit operator: =
reported result: 6.43
--
compound: CCCCCC[C@@H]([C@@H](C)O)n1cnc2c(N)ncnc21 (racemic) [EHNA, reference compound]
limit operator: =
reported result: 5.43
--
compound: COc1ccc(C2CNC(=O)C2)cc1OC1CCCC1 (centres unmarked)
limit operator: <
reported result: 4.00
--
compound: CC1(C)C(=O)Nc2ccc(C3=NNC(=O)CC3)cc21
limit operator: <
reported result: 4.00
--
compound: CCOC(=O)C1=C[C@]2(CC)CCCN3CCc4c(n1c1ccccc41)[C@@H]32
limit operator: <
reported result: 4.00

* * *

Tested on: HCT-15
protocol description: Growth inhibition of various cell lines (Table 5)
Format: cell-based
conditions: Homo sapiens

molecule: COc1cc(/C=C2/C(C)=C(CC(=O)NCc3ccccc3)c3cc(F)ccc32)cc(OC)c1OC [Compound E]
study target: HCT-15
IC50 / µM: 0.6

* * *

Documented IC50 across a set of compounds
study target: PDE peak A (PDE5) (Homo sapiens)
Construct: SW-480 cells are collected and homogenized; endogenous in cells; host or cells: SW-480 human colon adenocarcinoma cells; supernatant of homogenate fractionated on DEAE-Trisacryl M
protocol description: cGMP hydrolysis by PDE peak A isolated from SW-480 cells
Format: biochemical
conditions: cGMP hydrolysis, 0.25 μM 3H-cGMP
measurement label: IC50 (µM)

molecular string: COc1cc(/C=C2/C(C)=C(CC(=O)NCc3ccccc3)c3cc(F)ccc32)cc(OC)c1OC
unit tag: µM
limit operator: =
reported result: 0.38
--
molecular string: CC1(C)C(=O)Nc2ccc(C3=NNC(=O)CC3)cc21
unit tag: µM
limit operator: =
reported result: 31
--
molecular string: CCOC(=O)C1=C[C@]2(CC)CCCN3CCc4c(n1c1ccccc41)[C@@H]32
unit tag: µM
limit operator: >
reported result: 100

* * *

System: A-427, Lung
protocol description: Growth inhibition of various cell lines (Table 5)
Format: cell-based
conditions: Homo sapiens

molecular string: CC1=C(CC(=O)O)c2cc(F)ccc2/C1=C\c1ccc(S(C)(=O)=O)cc1
IC50 / µM: 130

* * *

System: HT-29, Colon
protocol description: Growth inhibition of various cell lines (Table 5)
Format: cell-based
conditions: Homo sapiens
Listed here are molecules together with their documented IC50.
measurement label: IC50 (µM)

molecular string: COc1cc(/C=C2/C(C)=C(CC(=O)NCc3ccccc3)c3cc(F)ccc32)cc(OC)c1OC
measurement label: IC50
reported result: 0.1
//
molecular string: CC1=C(CC(=O)O)c2cc(F)ccc2/C1=C\c1ccc(S(C)(=O)=O)cc1
measurement label: IC50
reported result: 120

* * *

study target: PDE peak A (PDE5) (Homo sapiens)
Construct: SW-480 cells are collected and homogenized; endogenous in cells; host or cells: SW-480 human colon adenocarcinoma cells; supernatant of homogenate fractionated on DEAE-Trisacryl M
protocol description: cGMP hydrolysis by PDE peak A isolated from SW-480 cells
Type: biochemical
pIC50: −log10 of the molar value.

compound: CSc1ccc(/C=C2/C(C)=C(CC(=O)O)c3cc(F)ccc32)cc1 [Sulindac sulfide]
study target: PDE peak A (PDE5) (Homo sapiens)
pIC50: 4.30
